Hello, the source for this data is ChEMBL document CHEMBL1221321, in case you need it.

Test system: Streptococcus pneumoniae
Test: Antibacterial activity against inducible resistance to macrolide and constitutive resistance to lincosamide Streptococcus pneumoniae 134 GR M by broth microdilution method
Assay type: functional
result-type: MIC (µg/mL)
Write down the numeric answer in µg/mL and omit the unit.

CC[C@H]1OC(=O)[C@H](C)[C@@H](O[C@H]2C[C@@](C)(OC)[C@@H](OCCCOCCCc3ccc4c(c3)c(=O)c(C(=O)O)cn4N(C)C)[C@H](C)O2)[C@H](C)[C@@H](O[C@@H]2O[C@H](C)C[C@H](N(C)C)[C@H]2O)[C@](C)(O)C[C@@H](C)CN(C)[C@H](C)[C@@H](O)[C@]1(C)O ... 0.25

Form field: MIC recorded for CC[C@H]1OC(=O)[C@H](C)[C@@H](O[C@H]2C[C@@](C)(OC)[C@@H](OCCCOCCCCCc3ccc4c(c3)c(=O)c(C(=O)O)cn4N(C)C)[C@H](C)O2)[C@H](C)[C@@H](O[C@@H]2O[C@H](C)C[C@H](N(C)C)[C@H]2O)[C@](C)(O)C[C@@H](C)CN(C)[C@H](C)[C@@H](O)[C@]1(C)O with Streptococcus pneumoniae (enter value)
0.5
